// provenance: paper PMC6151531

activity at 10 µM values by entry
target: MMP-7 (Homo sapiens)
Sequence (P09237 95-267): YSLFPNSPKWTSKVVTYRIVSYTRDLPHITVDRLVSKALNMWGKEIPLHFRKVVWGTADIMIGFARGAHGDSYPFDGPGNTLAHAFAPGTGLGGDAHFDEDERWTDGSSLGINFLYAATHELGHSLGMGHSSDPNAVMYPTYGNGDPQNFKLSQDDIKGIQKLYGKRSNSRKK
assay name: MMP-7 FRET peptide enzyme assay (single dose 10 μM and IC50)
condition info: read-out: % Activity MMP-7
reported metric: activity at 10 µM (%)

- O=C(O)CCCCCCOc1ccc(CC(=O)Nc2ccc3c(c2)C(=O)N(Cc2ccc(F)cc2)C3=O)cc1 [Compound 14n]: 47.5
- O=C(O)CCCCCOc1ccc(CC(=O)Nc2ccc3c(c2)C(=O)N(Cc2ccccc2)C3=O)cc1 [Compound 14f]: 59.4
- O=C(O)CCCCCCCOc1ccc(CC(=O)Nc2ccc3c(c2)C(=O)N(Cc2ccc(F)cc2)C3=O)cc1 [Compound 14o]: 64.5
- O=C(O)CCCCCCCOc1ccc(CC(=O)Nc2ccc3c(c2)C(=O)N(Cc2ccccc2)C3=O)cc1 [Compound 14h]: 25.9
- O=C(O)CCOc1ccc(CC(=O)Nc2ccc3c(c2)C(=O)N(Cc2ccccc2)C3=O)cc1 [Compound 14c]: 93.1
- O=C(O)CCCOc1ccc(CC(=O)Nc2ccc3c(c2)C(=O)N(Cc2ccccc2)C3=O)cc1 [Compound 14d]: 91.3

* * *

activity at 10 µM values by entry
target: MMP-13 (Homo sapiens)
assay name: MMP-13 FRET peptide enzyme assay (single dose 10 μM and IC50)
Format: biochemical
condition info: remaining enzyme activity at 10 μM inhibitor concentration, measured in duplicate
reported metric: activity at 10 µM (%)

• O=C(O)CCCCCOc1ccc(CC(=O)Nc2ccc3c(c2)C(=O)N(Cc2ccccc2)C3=O)cc1 [Compound 14f] = 2.5
• O=C(O)CCOc1ccc(CC(=O)Nc2ccc3c(c2)C(=O)N(Cc2ccccc2)C3=O)cc1 [Compound 14c] = 35.8
• O=C(O)CCOc1ccc(CC(=O)Nc2ccc3c(c2)C(=O)N(Cc2ccc(F)cc2)C3=O)cc1 [Compound 14k] = 37
• O=C(O)CCCOc1ccc(CC(=O)Nc2ccc3c(c2)C(=O)N(Cc2ccccc2)C3=O)cc1 [Compound 14d] = 2.6
• O=C(O)CCCCCOc1ccc(CC(=O)Nc2ccc3c(c2)C(=O)N(Cc2ccc(F)cc2)C3=O)cc1 [Compound 14m] = 1.2
• O=C(O)CCCCCCOc1ccc(CC(=O)Nc2ccc3c(c2)C(=O)N(Cc2ccc(F)cc2)C3=O)cc1 [Compound 14n] = 1.9
